Data provenance is patent US12319666B2.

experiment: Bulk density of crystal product
Assay type: physicochemical
measured attribute: bulk density (g/mL)
Field format: number, assumed g/mL, no unit text.

Query string: Fill in the blank: the reported bulk density of CC1=C2CC[C@@](C)(O)[C@@H]2[C@H]2OC(=O)[C@@H](CN(C)C)[C@@H]2CC1.O=C(O)/C=C/C(=O)O [crystalline form A, dimethylaminomicheliolide fumarate] is ____.
Result string: 0.270

Query string: Sample CC1=C2CC[C@@](C)(O)[C@@H]2[C@H]2OC(=O)[C@@H](CN(C)C)[C@@H]2CC1.O=C(O)/C=C/C(=O)O [Example 3] — what was its bulk density?
Result string: 0.65

Query string: Which bulk density is listed for CC1=C2CC[C@@](C)(O)[C@@H]2[C@H]2OC(=O)[C@@H](CN(C)C)[C@@H]2CC1.O=C(O)/C=C/C(=O)O [Example 2] ?
Result string: 0.655

Query string: Name the reported bulk density value associated with the compound CC1=C2CC[C@@](C)(O)[C@@H]2[C@H]2OC(=O)[C@@H](CN(C)C)[C@@H]2CC1.O=C(O)/C=C/C(=O)O [Example 7]
Result string: 0.65

Query string: // bulk density lookup, key: CC1=C2CC[C@@](C)(O)[C@@H]2[C@H]2OC(=O)[C@@H](CN(C)C)[C@@H]2CC1.O=C(O)/C=C/C(=O)O [Example 8]
Result string: 0.654

Query string: Please give the measured bulk density for this compound: CC1=C2CC[C@@](C)(O)[C@@H]2[C@H]2OC(=O)[C@@H](CN(C)C)[C@@H]2CC1.O=C(O)/C=C/C(=O)O [hydrate of dimethylaminomicheliolide fumarate]
Result string: 0.65

Query string: Endpoint output: bulk density of CC1=C2CC[C@@](C)(O)[C@@H]2[C@H]2OC(=O)[C@@H](CN(C)C)[C@@H]2CC1.O=C(O)/C=C/C(=O)O [Example 1] . Value?
Result string: 0.646

Query string: Dear colleague, I am looking for the recorded bulk density of the following compound: CC1=C2CC[C@@](C)(O)[C@@H]2[C@H]2OC(=O)[C@@H](CN(C)C)[C@@H]2CC1.O=C(O)/C=C/C(=O)O [Example 9]
Result string: 0.645

Query string: Consider the compound CC1=C2CC[C@@](C)(O)[C@@H]2[C@H]2OC(=O)[C@@H](CN(C)C)[C@@H]2CC1.O=C(O)/C=C/C(=O)O [Example 4] and give its measured bulk density.
Result string: 0.659

Query string: Item CC1=C2CC[C@@](C)(O)[C@@H]2[C@H]2OC(=O)[C@@H](CN(C)C)[C@@H]2CC1.O=C(O)/C=C/C(=O)O [Example 5] has what recorded bulk density?
Result string: 0.645

Query string: What value of bulk density has been reported for the following compound? CC1=C2CC[C@@](C)(O)[C@@H]2[C@H]2OC(=O)[C@@H](CN(C)C)[C@@H]2CC1.O=C(O)/C=C/C(=O)O [Example 6]
Result string: 0.65
